Values were extracted from patent US8741946B2.

Molecular target: wild-type NS5B (amino acids 1-570; GT-1b) (Hepatitis C virus genotype 1b, UniProt Q9WMX2)
Construct: 21 residue C-terminal truncated forms of the NS5b protein (amino acids 1-570); GT-1b; made in house
Test: Surface Plasmon Resonance binding affinity to wild-type NS5B
Parameters: species or system HCV GT-1b
Settings: SPR, Biacore T100, 25° C., wild-type NS5B; read-out: Wild-type KD
measured_attribute: pKd
Quick note: pKd means taking -log10 of the concentration in moles per liter.

Determine from records and report pKd for CC1=CC[C@@H](C(=O)N(c2cc(C#CC(C)(C)C)sc2C(=O)O)C(C)C)[C@@H](C)C1 [Example 4]
8.19

# ---- query compound ----
Determine from records and report pKd for CC(C)N(c1cc(C#CC(C)(C)C)sc1C(=O)O)C(=O)[C@H]1CC[C@H](C)CC1 [Comparative example 1, reference compound]
8.77
